- TESTED_TARGET: Voltage-dependent L-type calcium channel subunit alpha-1D (Homo sapiens)
- TEST_DETAILS: inhibitors of CaV1.3 ICDI-IQ binding, dose response, cell-based, HEK293, YFP-IQ/CFP-ICDI FRET, cherry-picks (AID 1053205)
- PARTICULARS: HEK293 YFP-IQ/CFP-ICDI FRET ratio, 10 min; series mostly up to 35 µM
Potency and affinity values are given separately. Results filed as inconclusive are left out. Activity calls are given as the source filed them.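 Rule for the calls: active = compounds lowering the FRET ratio whose fitted half-maximal concentration is at most twice their top tested dose; inconclusive = flat partial drop between 30 and 70 percent, or bad fit; inactive = the rest.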
REPORTED_PROPERTY: FRET change, negative = inhibition

Reference set, count: 4
MOLECULE	RESULT
N#CC1=C(N)Oc2cc(N)ccc2C1c1ccc(F)cc1F (stereo not given)	inactive
CCOc1ccc(C2C(C#N)=C(N)Oc3cc(O)ccc32)cc1OCC (stereo not given)	inactive
O=C(NCc1cc(C(F)(F)F)ccc1Cl)c1cccc2c1C(=O)c1ccc(Cl)cc1S2(=O)=O	inactive
CCN1C(=O)c2cccc3c(S(=O)(=O)N(C)C)ccc1c23	inactive

Hello, I would appreciate it if you could give FRET change, negative = inhibition for each entry below.
1. CCC(Sc1nc(N)c(NC(=O)c2ccc(OC)cc2)c(=O)[nH]1)C(=O)O (stereo not given)
2. O=C(NCc1nnnn1-c1ccc(Cl)cc1)C1CC(=O)N(c2ccc(F)cc2)C1 (stereo not given)
3. CCCOc1ccccc1/C=C1\SC(N)=NC1=O
4. CCCOc1ccc(NC(=O)c2c(-c3ccccc3)noc2C)cc1
5. O=C(COC(=O)c1cc(S(=O)(=O)N2CCCCC2)ccc1N1CCOCC1)c1ccccc1Cl
6. COc1ccc(S(=O)(=O)N2CCCC2CNC(=O)C(=O)NC2CCCC2)cc1 (stereo not given)

inactive
inactive
inactive
inactive
inactive
inactive
